Values from patent US8859615B2

Tested on: human mammary carcinoma MX-1 cells
Test: In vitro drug combination (median-effect / combination index, DRI) against MX-1 cell growth (Tables 5, 5A)
Type: cell-based
Conditions: Table 5; MX-1, 72 hrs; each drug alone; read-out: Dose-effect parameter Dm (IC50)
parameter: pIC50
Give bare numbers, as −log10 of the molar value.

Measured pIC50 of C/C(=C\c1csc(C)n1)[C@@H]1C/C=C(/C(F)(F)F)C/C=C/[C@H](C)[C@H](O)[C@@H](C)C(=O)C(C)(C)[C@@H](O)CC(=O)O1 : 8.57

----------
Test: Human PBMC lymphocyte viability by actual cell counts (hemacytometer; Tables 8A, 8B, FIG. 9)
Assay type: cell-based
Details: human; 0.1 μM, 24-hrs; read-out: viable cells relative to the starting point (control)
parameter: viability at 24 h, 0.1 µM (%)
Answers are plain numbers, in %.

Measured viability at 24 h, 0.1 µM of C=C[C@@H](O)C#CC#CC[C@@H](O)[C@H](O)CCCCCCC : 121

----------
Assay: Human PBMC lymphocyte viability by actual cell counts (hemacytometer; Tables 8A, 8B, FIG. 9)
Format: cell-based
Conditions: human; 10.0 μM, 72-hrs; read-out: viable cells relative to the starting point (control)
parameter: viability at 72 h, 10 µM (%)
One number for each entry, in %.

Measured viability at 72 h, 10 µM of C=C[C@@H](O)C#CC#CC[C@@H](O)[C@H](O)CCCCCCC : 28.5

----------
Experiment: Human PBMC lymphocyte viability by actual cell counts (hemacytometer; Tables 8A, 8B, FIG. 9)
Type: cell-based
Conditions: human; 1.0 μM, 120-hrs; read-out: viable cells relative to the starting point (control)
parameter: viability at 120 h, 1 µM (%)
Numbers only, in %.

Measured viability at 120 h, 1 µM of C=C[C@@H](O)C#CC#CC[C@@H](O)[C@H](O)CCCCCCC : 101

----------
Assay: Human PBMC lymphocyte viability by actual cell counts (hemacytometer; Tables 8A, 8B, FIG. 9)
Assay type: cell-based
Settings: human
parameter: viability at 24 h, 10 µM (%)
Answers are plain numbers, in %.

Measured viability at 24 h, 10 µM of C=C[C@H](O)C#CC#CC[C@H]1OC(C)(C)O[C@@H]1CCCCCCC : 7.5

----------
Assay: Human PBMC lymphocyte viability by actual cell counts (hemacytometer; Tables 8A, 8B, FIG. 9)
Format: cell-based
Conditions: human; 0.1 μM, 120-hrs; read-out: viable cells relative to the starting point (control)
parameter: viability at 120 h, 0.1 µM

Measured viability at 120 h, 0.1 µM of C=C[C@@H](O)C#CC#CC[C@@H](O)[C@H](O)CCCCCCC : 110%

----------
Assay: Human PBMC lymphocyte viability by actual cell counts (hemacytometer; Tables 8A, 8B, FIG. 9)
Type: cell-based
Settings: human; 3.0 μM, 24-hrs; read-out: viable cells relative to the starting point (control)
parameter: viability at 24 h, 3 µM (%)
Numbers only, in %.

Measured viability at 24 h, 3 µM of C=C[C@@H](O)C#CC#CC[C@@H](O)[C@H](O)CCCCCCC : 104

----------
Assay: Human PBMC lymphocyte viability by actual cell counts (hemacytometer; Tables 8A, 8B, FIG. 9)
Type: cell-based
Settings: human; 10.0 μM, 120-hrs; read-out: viable cells relative to the starting point (control)
parameter: viability at 120 h, 10 µM (%)
Numbers only, in %.

Measured viability at 120 h, 10 µM of C=C[C@@H](O)C#CC#CC[C@@H](O)[C@H](O)CCCCCCC [panaxytriol] : 35.5

----------
Tested on: human mammary carcinoma MX-1 cells
Experiment: In vitro drug combination (median-effect / combination index, DRI) against MX-1 cell growth (Tables 5, 5A)
Type: cell-based
Details: Table 5; MX-1, 72 hrs; Panaxytriol + Fludelone combination (1.199 + 0.0012); read-out: Dose-effect parameter Dm (IC50) of the component in the combination
parameter: pIC50
One number for each entry, as −log10 of the molar value.

Measured pIC50 of C/C(=C\c1csc(C)n1)[C@@H]1C/C=C(/C(F)(F)F)C/C=C/[C@H](C)[C@H](O)[C@@H](C)C(=O)C(C)(C)[C@@H](O)CC(=O)O1 : 8.92

----------
Experiment: Human PBMC lymphocyte viability by actual cell counts (hemacytometer; Tables 8A, 8B, FIG. 9)
Type: cell-based
Conditions: human; 1.0 μM, 72-hrs; read-out: viable cells relative to the starting point (control)
parameter: viability at 72 h, 1 µM (%)
Numbers only, in %.

Measured viability at 72 h, 1 µM of C=C[C@@H](O)C#CC#CC[C@@H](O)[C@H](O)CCCCCCC : 102

----------
Assay: Human PBMC lymphocyte viability by actual cell counts (hemacytometer; Tables 8A, 8B, FIG. 9)
Assay type: cell-based
Conditions: human
parameter: viability at 24 h, 3 µM (%)
Give bare numbers, in %.

Measured viability at 24 h, 3 µM of C=C[C@H](O)C#CC#CC[C@H]1OC(C)(C)O[C@@H]1CCCCCCC : 90.5

----------
Experiment: Human PBMC lymphocyte viability by actual cell counts (hemacytometer; Tables 8A, 8B, FIG. 9)
Type: cell-based
Settings: human
parameter: viability at 72 h, 1 µM (%)
Answers are plain numbers, in %.

Measured viability at 72 h, 1 µM of C=C[C@H](O)C#CC#CC[C@H]1OC(C)(C)O[C@@H]1CCCCCCC : 89.7

----------
Experiment: Human PBMC lymphocyte viability by actual cell counts (hemacytometer; Tables 8A, 8B, FIG. 9)
Assay type: cell-based
Settings: human; 0.1 μM, 72-hrs; read-out: viable cells relative to the starting point (control)
parameter: viability at 72 h, 0.1 µM (%)
One number for each entry, in %.

Measured viability at 72 h, 0.1 µM of C=C[C@@H](O)C#CC#CC[C@@H](O)[C@H](O)CCCCCCC : 113

----------
Test: Human PBMC lymphocyte viability by actual cell counts (hemacytometer; Tables 8A, 8B, FIG. 9)
Format: cell-based
Details: human; 1.0 μM, 24-hrs; read-out: viable cells relative to the starting point (control)
parameter: viability at 24 h, 1 µM (%)
Answers are plain numbers, in %.

Measured viability at 24 h, 1 µM of C=C[C@@H](O)C#CC#CC[C@@H](O)[C@H](O)CCCCCCC : 123

----------
System: CCRF-CEM/VBL100 vinblastine-resistant cells
Assay: In vitro cytotoxicity against vinblastine-resistant CCRF-CEM subline
Format: cell-based, human
Conditions: Homo sapiens, CCRF-CEM, 72 h, Table 3A-2; CCK-8, 72-hr exposure; read-out: CCRF-CEM/VBL (IC50 in μM)
parameter: IC50 (µM)
Answers are plain numbers, in µM.

# compound, IC50 (µM)
records = [
    ("C=C[C@H](O)C#CC#CC[C@H]1OC(C)(C)O[C@@H]1CCCCCCC [Compound (D)]", 2.55),
    ("CC(=O)O[C@H]1C(=O)[C@@]2(C)[C@H]([C@H](OC(=O)c3ccccc3)[C@]3(O)C[C@H](OC(=O)[C@H](O)[C@@H](NC(=O)c4ccccc4)c4ccccc4)C(C)=C1C3(C)C)[C@]1(OC(C)=O)CO[C@@H]1C[C@@H]2O [paclitaxel]", 2.26),
]

Now consider the entry below.
Measured IC50 of CC[C@]1(O)C[C@@H]2CN(CCc3c([nH]c4ccccc34)[C@@](C(=O)OC)(c3cc4c(cc3OC)N(C)[C@H]3[C@@](O)(C(=O)OC)[C@H](OC(C)=O)[C@]5(CC)C=CCN6CC[C@]43[C@@H]65)C2)C1 [Vinblastine] : 0.669

----------
Test: Human PBMC lymphocyte viability by actual cell counts (hemacytometer; Tables 8A, 8B, FIG. 9)
Assay type: cell-based
Conditions: human
parameter: viability at 72 h, 0.1 µM (%)
Numbers only, in %.

Measured viability at 72 h, 0.1 µM of C=C[C@H](O)C#CC#CC[C@H]1OC(C)(C)O[C@@H]1CCCCCCC : 116

----------
Test system: CCRF-CEM subline resistant to TAXOL
Experiment: In vitro cytotoxicity against TAXOL-resistant CCRF-CEM subline
Format: cell-based, human
Settings: Homo sapiens, CCRF-CEM; Table 3D; CCK-8, 72-hr incubation; read-out: IC50 CCRF-CEM/TAXOL
Please go through the items and note down their pIC50.
One number for each entry, as −log10 of the molar value.

# smiles.data, parameter, observed.value
rows = [
    ("CCCCCCC[C@H]1OC(C)(C)O[C@@H]1CC#CC#C[C@@H](O)CC", "pIC50", 5.45),
]

Now consider the entry below.
Measured pIC50 of CCCCCCC[C@H]1OC(C)(C)O[C@@H]1CC#CC#CC(=O)CC : 5.76

----------
Experiment: Human PBMC lymphocyte viability by actual cell counts (hemacytometer; Tables 8A, 8B, FIG. 9)
Assay type: cell-based
Details: human; 10.0 μM, 24-hrs; read-out: viable cells relative to the starting point (control)
parameter: viability at 24 h, 10 µM

Measured viability at 24 h, 10 µM of C=C[C@@H](O)C#CC#CC[C@@H](O)[C@H](O)CCCCCCC [panaxytriol] : 27.7%
